- MEASURED TARGET: T1, dADAR-dsRBD1 (UniProt Q9NII1 48-140)
- T1 sequence: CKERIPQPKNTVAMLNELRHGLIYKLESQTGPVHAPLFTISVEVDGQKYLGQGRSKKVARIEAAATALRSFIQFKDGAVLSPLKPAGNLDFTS
- TEST SUMMARY: ITC
MEASURED METRIC: pKd
Note on units: pKd is unitless, being -log10 of a concentration expressed in mol/L.

Give recorded pKd. miR-16-1-D (dsRNA) RNA 1: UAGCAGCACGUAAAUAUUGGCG RNA 2: CCAGUAUUUACGUGCUGCUGAA
6.37
